All values here come from ChEMBL document CHEMBL5550093.

- System: HeLa
- assay procedure: Antiproliferative activity against human HeLa cells at 5 uM incubated for 48 hrs by MTT assay relative to control
- Assay type: functional
measurement name: inhibition at 5 µM (%)
Expressed in %, but write only the number.

{"structure notation": "CN(c1ccc(N2CCOCC2)cc1)c1nc(C(=O)c2ccccc2)nc2ccc(F)cc12", "system under test": "HeLa", "measurement name": "inhibition at 5 µM", "recorded measurement": 40.3}
{"structure notation": "COc1cccc(C(=O)c2nc(N(C)c3ccc(OC)c(OC)c3)c3ccccc3n2)c1", "system under test": "HeLa", "measurement name": "inhibition at 5 µM", "recorded measurement": 47.1}

// next entry
Problem: Tell us which inhibition at 5 µM value is on record for COc1ccc(N(C)c2nc([C@@H](N)C(C)C)nc3ccccc23)cc1
Solution: 33.6

* * *

- assay procedure: Antiproliferative activity against HEK293T cells at 5 uM incubated for 48 hrs by MTT assay relative to control
- Assay type: toxicity, cell-based, HEK-293T
- settings: human
measurement name: inhibition at 48 h, 5 µM

Worked cases, inhibition at 48 h, 5 µM given:
{"structure notation": "CC(C)[C@H](N)c1nc(Nc2ccc(N3CCOCC3)cc2)c2ccccc2n1", "inhibition at 48 h, 5 µM": "1.2%"}
{"structure notation": "COC(=O)c1ccc(Nc2nc(C(=O)c3cccc(OC)c3)nc3ccccc23)cc1OC", "inhibition at 48 h, 5 µM": "14.5%"}
{"structure notation": "COc1cc(N(C)c2nc(C(=O)c3ccc(F)cc3)nc3ccccc23)ccc1C(=O)O", "inhibition at 48 h, 5 µM": "5.3%"}
{"structure notation": "COC(=O)c1ccc(Nc2nc(C(=O)c3ccccc3)nc3ccc(F)cc23)cc1", "inhibition at 48 h, 5 µM": "11.1%"}
{"structure notation": "CN(c1ccc(N2CCOCC2)cc1)c1nc(C(=O)c2ccccc2)nc2ccc(F)cc12", "inhibition at 48 h, 5 µM": "34.5%"}

Next, consider the following compound.
Problem: Consider the compound CC(C)[C@H](N)c1nc(Nc2ccc(OC(F)(F)F)cc2)c2ccccc2n1 . State its measured inhibition at 48 h, 5 µM.
Solution: 4.4%

* * *

- assay procedure: Antiproliferative activity against HEK293T cells at 5 uM incubated for 48 hrs by MTT assay relative to control
- Type: toxicity, cell-based, HEK-293T
- settings: human
Measured inhibition at 48 h, 5 µM by item
Lab book: enter the figure in %, no units written.

Problem: Look up inhibition at 48 h, 5 µM of COc1ccc(N(C)c2nc(C(=O)c3ccccc3)nc3ccc(F)cc23)cc1 and report it.
Solution: 39.3

Problem: Please give measured inhibition at 48 h, 5 µM of the following entry: COc1cccc(C(=O)c2nc(N(C)c3ccc(OC)c(OC)c3)c3ccccc3n2)c1
Solution: 46.3

Problem: Using the record for Cc1ccc(Nc2nc(C(=O)c3ccc(F)cc3)nc3ccccc23)c(C(=O)O)c1 , state its measured inhibition at 48 h, 5 µM.
Solution: 20.6
